Reference source for all entries: ChEMBL document CHEMBL5291721

study_target: Equilibrative nucleoside transporter 1 (Homo sapiens, UniProt Q99808); note: assay procedure not described here
Sequence (Q99808 whole entry): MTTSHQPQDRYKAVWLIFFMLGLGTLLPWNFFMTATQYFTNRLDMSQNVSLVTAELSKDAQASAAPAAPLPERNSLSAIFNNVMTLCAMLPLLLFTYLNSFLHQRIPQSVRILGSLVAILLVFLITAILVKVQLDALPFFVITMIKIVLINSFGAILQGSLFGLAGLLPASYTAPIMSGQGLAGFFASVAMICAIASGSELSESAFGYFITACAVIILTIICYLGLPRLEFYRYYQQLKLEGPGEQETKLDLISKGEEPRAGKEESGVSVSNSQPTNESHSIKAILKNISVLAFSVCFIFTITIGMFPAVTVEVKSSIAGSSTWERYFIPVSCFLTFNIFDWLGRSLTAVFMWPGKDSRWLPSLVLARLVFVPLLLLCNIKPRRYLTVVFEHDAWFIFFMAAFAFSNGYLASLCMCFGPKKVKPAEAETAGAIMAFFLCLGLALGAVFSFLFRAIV
outcome_measure: AC50

// O=C(/C=C/c1cccc(S(=O)(=O)Nc2ccccc2)c1)NO : AC50 value = > 30 µM

AC50 reported for this compound CCOC(=O)c1ccc(C#Cc2ccc3c(c2)C(C)(C)CCS3)nc1 : > 30 µM

AC50 recorded for this compound, CN1Cc2c(N)cccc2C(c2ccccc2)C1 (centres undefined) , is > 30 µM

Consider CCC(NC(C)C)C(O)c1ccc(O)c2[nH]c(=O)ccc12 (centres undefined) . Its measured AC50 is > 30 µM

// sample C=C1c2cccc(O)c2C(=O)C2=C(O)[C@]3(O)C(=O)C(C(N)=O)=C(O)[C@@H](N(C)C)[C@@H]3[C@@H](O)[C@H]12 , its AC50 was > 10 µM

AC50 in this record for CC(C)NC[C@H](O)COc1ccc(CC(N)=O)cc1 : > 30 µM

// field: AC50; key: CC=CC1=C(C(=O)O)N2C(=O)[C@@H](NC(=O)[C@H](N)c3ccc(O)cc3)[C@H]2SC1 ; value = > 30 µM

Entry C[N+](C)(C)CCOP(=O)([O-])OC[C@H](O)CO — recorded AC50 = > 30 µM

Value of AC50 reported for the compound O=C(O)c1cccnc1Nc1cccc(C(F)(F)F)c1 is > 10 µM

* * *

AC50 data for UniProt P41968 follow.
Sequence (P41968 whole entry): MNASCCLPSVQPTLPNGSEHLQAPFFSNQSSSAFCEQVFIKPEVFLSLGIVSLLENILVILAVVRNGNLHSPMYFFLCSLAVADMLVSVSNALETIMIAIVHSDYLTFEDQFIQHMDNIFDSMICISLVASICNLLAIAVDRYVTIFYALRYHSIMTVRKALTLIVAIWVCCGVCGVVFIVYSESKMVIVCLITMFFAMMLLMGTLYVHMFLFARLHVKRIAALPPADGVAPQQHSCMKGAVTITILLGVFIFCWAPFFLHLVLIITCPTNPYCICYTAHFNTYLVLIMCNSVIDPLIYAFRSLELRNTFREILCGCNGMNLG

Recorded result, c1ccc(C2(N3CCCCC3)CCCCC2)cc1 , AC50: > 30 µM

// AC50 value for CO/N=C(\C(=O)N[C@@H]1C(=O)N2C(C(=O)O)=C(CSc3nc(=O)c(=O)[nH]n3C)CS[C@H]12)c1csc(N)n1 : > 30 µM

Briefly, AC50 measured for CC(C)NC[C@H](O)COc1ccc(CC(N)=O)cc1 : > 30 µM

Notebook: CCOC(=O)c1ccc(C#Cc2ccc3c(c2)C(C)(C)CCS3)nc1 , AC50 read as > 30 µM

Record summary for Cc1cc(=O)n(-c2ccccc2)n1C [ANTIPYRINE] : reported AC50 = > 30 µM

# compound COc1cc(N)c(Cl)cc1C(=O)NC1CCN(CCCOc2ccc(F)cc2)CC1OC (configuration not stated) [CISAPRIDE] ; its AC50 = > 30 µM

AC50 reported for this compound COc1cc2[nH]c(C)c(CCN3CCN(c4ccccc4)CC3)c2cc1OC : > 30 µM

Item: OC[C@H]1O[C@@H](Oc2cc(O)cc(/C=C/c3ccc(O)cc3)c2)[C@H](O)[C@@H](O)[C@@H]1O | AC50: > 30 µM

For record CCCCCCCC(=O)CC[C@@H]1[C@@H](C/C=C\CCCC(=O)OC(C)C)[C@@H](O)C[C@H]1O the listed AC50 is 27 µM

Record CN(C)CCCN1c2ccccc2CCc2ccccc21 . Reported AC50: 18.8 µM

So for C=CC[N+]1([C@H]2C[C@H]3[C@@H]4CC[C@H]5C[C@H](O)[C@@H](N6CCOCC6)C[C@]5(C)[C@H]4CC[C@]3(C)[C@H]2OC(C)=O)CCCC1 , the logged AC50 turned out to be > 30 µM

The measured AC50 associated with CCC[C@@H]1C[C@@H](C(=O)N[C@@H]([C@H]2O[C@H](SC)[C@H](O)[C@@H](O)[C@H]2O)[C@@H](C)O)N(C)C1 reads > 10 µM

Entry CNCCc1ccc(OC(=O)C(C)C)c(OC(=O)C(C)C)c1 — recorded AC50 = > 30 µM

C[C@]12CCC(=O)C[C@@H]1CC[C@@H]1[C@@H]2CC[C@]2(C)[C@@H](O)CC[C@@H]12 yielded AC50 of > 30 µM

Briefly, AC50 measured for CCCc1cc(=O)[nH]c(=S)[nH]1 : > 10 µM

get_value(item= COc1cc(C)c(/C=C/C(C)=C/C=C/C(C)=C/C(=O)O)c(C)c1C , readout=AC50) returns > 10 µM

// AC50 lookup, compound = Cc1cccc(C)c1NC(=O)CC12CCCN1CCC2 [PILSICAINIDE] , result: > 30 µM
